Data provenance is patent US20110229570A1.

# PROTOCOL DESCRIPTION: Water wettability (wetness time) of tablet
# Type: physicochemical
# EXPERIMENTAL PARAMETERS: 300 mg tablet, flat punch 10 mm, 1000 kg/punch
MEASURED QUANTITY: Wetness time, tablet obtained by compressing an excipient only (s)
Note: unit s is implicit; provide only the numeric part.

Solved cases below.
OC[C@@H](O)[C@H](O)[C@@H](O)CO [Xylitol]
3
OC[C@@H](O)[C@@H](O)[C@H](O)[C@H](O)CO [D-mannitol]
18

Now take the following compound into account.
Memo: OC[C@H]1O[C@@](CO)(O[C@H]2O[C@H](CO)[C@@H](O)[C@H](O)[C@H]2O)[C@@H](O)[C@@H]1O [Purified sucrose] , reported Wetness time, tablet obtained by compressing an excipient only: 3
